Assay: probe aEGFR binding to arrayed compounds – biochemical, biotinylated probe, 635/667 nm fluorescence, primary screen (AID 1097);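 further: probe is a biotinylated anti-EGFR antibody binding compounds printed on slides; score combines fluorescence near 667 nm and signal to noise of each spot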
Conditions: small-molecule microarray, higher = more signal
READOUT_NAME: composite z-score
Answer with a bare number; do not write a unit.

Request: For the molecule CCC1=C2CN(Cc3ccccc3)[C@@H](C(=O)Cc3ccccc3)C2C=CCC1 (stereo partly specified) , what composite z-score is on record?
Response: -0.177

Request: How about this molecule: COCCOC(=O)N1C(=O)[C@@]2(c3cc(C#CCCO)ccc31)[C@H](C(=O)Nc1nc3ccccc3s1)[C@H]1C(=O)O[C@H](c3ccccc3)[C@H](c3ccccc3)N1[C@@H]2c1ccc(O)cc1
Response: 0.152

Request: Same question, COC(=O)[C@@]1(Cc2ccc(OC)cc2)[C@H]2c3cc(C(=O)N(C)C)n(Cc4ccc(OC(F)(F)F)cc4)c3C[C@H]2CN1C(=O)c1ccccc1 this time
Response: 0.0139

Request: Try this molecule too: CC1CC/C=C\[C@H]2OC34C=CCN(c5ccc(Cl)cc5)C(=O)[C@H]3N(C(C)CO)C(=O)[C@]4(C)C2C(=O)O1 (stereo partly specified)
Response: -0.173

Request: What about this molecule? C=C[C@H](C)[C@H](OC(=O)Nc1ccc(SC)cc1)c1ccc(OCCO)cc1
Response: -0.15

Now consider a different molecule.
Request: Could you share which composite z-score value was measured for COc1cc2c(cc1O)C=[N+](Cc1sc3ccccc3c1Cl)CC2 ?
Response: -0.126
